Biological target: UniProtKB P10827
Sequence (P10827 whole entry): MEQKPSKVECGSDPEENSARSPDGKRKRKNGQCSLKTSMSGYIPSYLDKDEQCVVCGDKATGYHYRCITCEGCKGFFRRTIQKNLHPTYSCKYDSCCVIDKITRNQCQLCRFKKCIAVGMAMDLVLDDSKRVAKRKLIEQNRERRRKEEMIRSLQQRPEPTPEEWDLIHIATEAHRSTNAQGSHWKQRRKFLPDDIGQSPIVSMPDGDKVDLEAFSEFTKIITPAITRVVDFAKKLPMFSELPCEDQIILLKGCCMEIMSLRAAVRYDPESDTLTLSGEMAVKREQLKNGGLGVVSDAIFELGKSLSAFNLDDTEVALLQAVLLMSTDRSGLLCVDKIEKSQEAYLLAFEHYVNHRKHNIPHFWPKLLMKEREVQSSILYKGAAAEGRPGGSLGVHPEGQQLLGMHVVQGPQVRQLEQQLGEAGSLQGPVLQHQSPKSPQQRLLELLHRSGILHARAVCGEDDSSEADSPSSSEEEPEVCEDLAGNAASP
Experiment: Inhibitory activity expressed as concentration required to inhibit the binding of [125I]T3 to human thyroid hormone-alpha
Readout kind: IC50 (µM)

> print(dat)
                              sample.smiles  readout.kind  units.text  observed.measurement
1  N=C(c1ccccn1)N(N)S(=O)(=O)c1cc(Cl)c(Oc2ccc([N+](=O)[O-])cc2Cl)c(Cl)c1          IC50          µM                    39
2  N=C(CCl)N(N)S(=O)(=O)c1cc(Cl)c(Oc2ccc([N+](=O)[O-])cc2Cl)c(Cl)c1          IC50          µM                   1.8
3  [NH-]C(c1cc(Cl)cc(Cl)c1)=[N+](N)S(=O)(=O)c1cc(Cl)c(Oc2ccc([N+](=O)[O-])cc2Cl)c(Cl)c1          IC50          µM                  0.93
4  O=C(Nc1ccc(Cc2ccc(NC(=O)c3cccc([N+](=O)[O-])c3)cc2)cc1)c1cccc([N+](=O)[O-])c1          IC50          µM                  18.1
5  Cn1c(Cc2nn(C)c(=O)c3ccccc23)ccc1SCC(=O)c1ccc(Cl)cc1Cl          IC50          µM                    69
